system: EcR1: Penicillinase-Producing Escherichia coli without Associated Resistance; assay: Antibiogram, MIC by the VITEK 2 system; format: cell-based; settings: Escherichia coli; EcR1, Table A2; read-out: MIC mg/L (diameter in mm)
Documented MIC across a set of compounds

Known results for compounds:
CO[C@@]1(NC(=O)Cc2cccs2)C(=O)N2C(C(=O)O)=C(COC(N)=O)CS[C@@H]21
≤ 4 mg/L
CC1(C)S[C@@H]2[C@H](NC(=O)[C@H](N)c3ccc(O)cc3)C(=O)N2[C@H]1C(=O)O
≥ 32 mg/L
CO/N=C(\C(=O)N[C@@H]1C(=O)N2C(C(=O)O)=C(COC(C)=O)CS[C@H]12)c1csc(N)n1
≤ 1 mg/L
CC(C)(O/N=C(\C(=O)N[C@@H]1C(=O)N2C(C(=O)[O-])=C(C[n+]3ccccc3)CS[C@H]12)c1csc(N)n1)C(=O)O
≤ 1 mg/L
NCC[C@H](O)C(=O)N[C@@H]1C[C@H](N)[C@@H](O[C@H]2O[C@H](CN)[C@@H](O)[C@H](O)[C@H]2O)[C@H](O)[C@H]1O[C@H]1O[C@H](CO)[C@@H](O)[C@H](N)[C@H]1O
≤ 2 mg/L

Could you now look at the following compound, please?
Indicate its recorded MIC; the compound in question is `CC1(C)S[C@@H]2[C@H](NC(=O)[C@H](C(=O)O)c3ccsc3)C(=O)N2[C@H]1C(=O)O`
≥ 128 mg/L

====

test system: SaR3: Meticillin-Resistant Staphylococcus aureus; test: Antibiogram by the disk diffusion technique; type: cell-based; conditions: Table E1, against Dmin Dmax
Test Readout: Results

Known results for compounds:
CC(=O)O[C@H]1C[C@@]2(C)[C@@H](C[C@@H](O)[C@H]3[C@@]4(C)CC[C@@H](O)[C@@H](C)[C@@H]4CC[C@@]32C)/C1=C(\CCC=C(C)C)C(=O)O [Fusidic acid]
Susceptible
CN[C@H](CC(C)C)C(=O)N[C@H]1C(=O)N[C@@H](CC(N)=O)C(=O)N[C@H]2C(=O)N[C@H]3C(=O)N[C@H](C(=O)N[C@H](C(=O)O)c4cc(O)cc(O)c4-c4cc3ccc4O)[C@H](O)c3ccc(c(Cl)c3)Oc3cc2cc(c3O[C@@H]2O[C@H](CO)[C@@H](O)[C@H](O)[C@H]2O[C@H]2C[C@](C)(N)[C@H](O)[C@H](C)O2)Oc2ccc(cc2Cl)[C@H]1O [Vancomycin]
Susceptible
CC[C@H]1OC(=O)[C@H](C)[C@@H](O[C@H]2C[C@@](C)(OC)[C@@H](O)[C@H](C)O2)[C@H](C)[C@@H](O[C@@H]2O[C@H](C)C[C@H](N(C)C)[C@H]2O)[C@](C)(O)C[C@@H](C)C(=O)[C@H](C)[C@@H](O)[C@]1(C)O [Erythromycin]
Susceptible
CC(=O)NC[C@H]1CN(c2ccc(N3CCOCC3)c(F)c2)C(=O)O1 [Linezolid]
Susceptible
O=C(N[C@H](CO)[C@H](O)c1ccc([N+](=O)[O-])cc1)C(Cl)Cl [Chloramphenicol]
Resistant
C[C@@H]1O[C@@H]1P(=O)(O)O [Fosfomycin]
Susceptible

Indicate its recorded Results; the compound in question is CCC[C@@H]1C[C@@H](C(=O)N[C@@H]([C@H]2O[C@H](SC)[C@H](O)[C@@H](O)[C@H]2O)[C@@H](C)O)N(C)C1 [Lincomycin]
Susceptible

Indicate its recorded Results; the compound in question is NC[C@H]1O[C@H](O[C@H]2[C@H](O)[C@@H](O[C@H]3O[C@H](CO)[C@@H](O)[C@H](N)[C@H]3O)[C@H](N)C[C@@H]2N)[C@H](N)C[C@@H]1O [Tobramycin]
Resistant

Indicate its recorded Results; the compound in question is CC1(C)S[C@@H]2[C@H](NC(=O)Cc3ccccc3)C(=O)N2[C@H]1C(=O)O [Penicillin G]
Resistant
